Attribute: growth inhibition
assay: NCI Yeast Anticancer Drug Screen. Data for the cln2 rad14 strain (AID 165);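 note: 0% = growth equal to vehicle treated cultures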; details: S. cerevisiae cln2 rad14 strain, at 50.0 µM, hits give high values
About 79,000 compounds went through this panel and 15% of them were active in at least one assay; those are over-represented in the sample as a whole. Where a SMILES comes first, the peptide text is derived from it.
Measurement Type: growth inhibition (%)

{"columns": ["Molecule", "Reported Value"],
 "data": [
  ["NNC(=O)CC(=O)N(C(=O)/C=C/c1ccccc1)c1ccc(Cl)cc1", 24],
  ["O=P(O)(O)OC1C(OP(=O)(O)O)C(OP(=O)(O)O)C(OP(=O)(O)O)C(OP(=O)(O)O)C1OP(=O)(O)O.[Cu+2] (configuration not stated)", -10.9],
  ["Cc1c(-c2ccc(Cl)cc2)n[nH]c1-c1[nH]nc(-c2ccc(Cl)cc2)c1C", 3.75],
  ["CN1C2C=CC(=O)C1C1C(=O)N(c3ccccc3)C(=O)C12 (configuration not stated)", 31.4],
  ["COc1cccc(Oc2ccc(C)cc2)c1", -19.1],
  ["Cn1c(=O)c2[nH]c(SCCc3ccccc3)nc2n(C)c1=O", -39.1],
  ["CN(C)C(=N)N=C(N)N", -1.8],
  ["Cc1ccc(Cl)cc1NC(=O)C(Br)C(Br)c1ccccc1 (configuration not stated)", 0.85],
  ["COc1ccc2[nH]c3c4c(ccc3c2c1)C(=O)C=CC4=O", -1.05],
  ["N#CC1=C(N)N(c2ccccc2)C(c2ccco2)C1(C#N)C#N (configuration not stated)", 3.35],
  ["O=c1[nH]c2cccccc-2c1-c1nc2ccccc2[nH]1", 19.5],
  ["CCC(C)C(N)C(=O)NC(C(=O)O)C(C)C (stereo not drawn) (H-Ile-Val-OH; configuration not given here)", -41.9],
  ["CS(=O)(=O)OCCCCCCCCCOS(C)(=O)=O", -0.05],
  ["O=[N+]([O-])c1ccc(-c2nc3ncncc3[nH]2)cc1", 13.1],
  ["O=[N+]([O-])c1ccc(OP2(Oc3ccc([N+](=O)[O-])cc3)=NP(Oc3ccc([N+](=O)[O-])cc3)(Oc3ccc([N+](=O)[O-])cc3)=NP(Oc3ccc([N+](=O)[O-])cc3)(Oc3ccc([N+](=O)[O-])cc3)=NP(Oc3ccc([N+](=O)[O-])cc3)(Oc3ccc([N+](=O)[O-])cc3)=N2)cc1", -3.7],
  ["COc1ccc(/C(Cl)=C(\\CN(C)C)c2ccc(OC)c(OC)c2)cc1OC", 27.9],
  ["C1=C(c2ccccc2)CCCC1", 14.4]
]}
